Reference for the values: paper PMC5540273

// values below are reported %Inh
- Test system: MERTK
- measurement-conditions: concentration: 1 μM, replicates: in singlicate; n = 1;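 further: KINOMEscan kinase panel screen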
measured-quantity: %Inh (%)

[[record]]
molecule = "COc1cccc(C(=O)Nc2cccc(Oc3ccc4nc(NC(=O)C5CC5)cn4n3)c2)c1"
measured_quantity = "%Inh"
measured = 57

[[record]]
molecule = "Clc1ccc(-c2nn3ncccc3c2-c2ccnc(Nc3ccc4c(c3)OCCO4)n2)cc1"
measured_quantity = "%Inh"
measured = 0

[[record]]
molecule = "Cc1ccc(C(=O)N2CC[C@@H](O)C2)cc1-n1c(C)cc(OCc2ccc(F)cc2F)c(Br)c1=O"
measured_quantity = "%Inh"
measured = 0

[[record]]
molecule = "CCn1c(-c2nonc2N)nc2c(C#CC(C)(C)O)nc(OC[C@H](N)c3ccccc3)cc21"
measured_quantity = "%Inh"
measured = 21

[[record]]
molecule = "c1ccc(-c2cnc3nccnn23)cc1"
measured_quantity = "%Inh"
measured = 0

[[record]]
molecule = "FC(F)(F)c1ccc(/C=C/c2cncnc2Nc2ccc3[nH]c(Cc4ccccc4)nc3c2)cc1"
measured_quantity = "%Inh"
measured = 4

[[record]]
molecule = "COc1cccc(NC(=O)NC2CCN(c3ccnc(Nc4cc(OC)c(OC)c(OC)c4)n3)C2)c1 (centres unmarked)"
measured_quantity = "%Inh"
measured = 15

[[record]]
molecule = "CCS(=O)(=O)c1ccc(OC)c(Nc2nccc(-c3c(-c4cccc(NC(=O)c5c(F)cccc5F)c4)nn4ncccc34)n2)c1"
measured_quantity = "%Inh"
measured = 9


---

- System: YANK3
- Construct: gene STK32C
- measurement-conditions: concentration: 1 μM, replicates: in singlicate; n = 1
Listed below: %Inh values for each entry.
measured-quantity: %Inh (%)

[[record]]
compound = "COc1cc(Nc2nccc(N3CCC(NC(=O)Nc4cccc(C(C)=O)c4)C3)n2)cc(OC)c1OC (stereo not shown)"
measure_unit = "%"
measured = 0

[[record]]
compound = "COc1ccc(CNC(=O)NC2CCN(c3ccnc(Nc4ccc(F)cc4)n3)CC2)cc1"
measure_unit = "%"
measured = 0

[[record]]
compound = "CCn1c(-c2nonc2N)nc2c(C#CC(C)(C)O)ncc(OCCCCN)c21.O=C(O)C(F)(F)F.O=C(O)C(F)(F)F"
measure_unit = "%"
measured = 24

[[record]]
compound = "COc1cc(Nc2nccc(N3CCC(NC(=O)c4cc5ccccc5s4)C3)n2)cc(OC)c1OC (stereo not shown)"
measure_unit = "%"
measured = 0


---

- Tested on: LATS2
- measurement-conditions: concentration: 1 μM, replicates: in singlicate; n = 1
Catalogue of %Inh readings, one per entry.
measured-quantity: %Inh

[[record]]
compound = "O=C(Nc1n[nH]c2nc(-c3ccc(O)cc3)ccc12)C1CC1"
measured = "10%"

[[record]]
compound = "COCCOCCOc1cc2ncc3c4ccc(C#N)cc4[nH]c3c2cc1OC"
measured = "10%"

[[record]]
compound = "COc1cc(Nc2nccc(-c3c(-c4cccc(NC(=O)c5c(F)cccc5F)c4)nn4ccccc34)n2)cc(OC)c1OC"
measured = "11%"

[[record]]
compound = "CN1CCN(CCCNc2nccc(-c3c(-c4ccc(F)cc4)nn4cc(C(F)(F)F)ccc34)n2)CC1"
measured = "0%"

[[record]]
compound = "O=C(Nc1cccc(Oc2ccc3nc(NC(=O)C4CC4)cn3n2)c1)c1ccccc1C(F)(F)F"
measured = "0%"

[[record]]
compound = "COC(=O)Nc1nc2ccc(Oc3ccc(NC(=O)Nc4cc(C(F)(F)F)ccc4F)cc3)cc2n1C.Cl"
measured = "0%"

[[record]]
compound = "COc1cccc(C2=C(Nc3ccc(Cl)c(C(=O)O)c3)C(=O)NC2=O)c1"
measured = "100%"

[[record]]
compound = "CCc1ccc(-c2ccc3c(c2)-c2c(cnn2C)S(=O)(=O)N3C)cc1"
measured = "0%"

[[record]]
compound = "CCn1c(-c2nonc2N)nc2c(C#CC(C)(C)O)nc(OC[C@H](N)c3ccccc3)cc21"
measured = "100%"

[[record]]
compound = "CN1CCN(Cc2cccc(-c3ccc4c(Nc5ccc(Oc6ccccc6)cc5)ccnc4c3)c2)CC1"
measured = "0%"

[[record]]
compound = "CCS(=O)(=O)c1ccc(OC)c(Nc2nccc(-c3c(-c4cccc(NC(=O)c5c(F)cccc5F)c4)nn4ncccc34)n2)c1"
measured = "2%"

[[record]]
compound = "Cl.Cl.NCC(NC(=O)c1cc(-c2ccccc2)c(-c2ccnc3[nH]ccc23)s1)c1ccccc1 (centres unmarked)"
measured = "11%"

[[record]]
compound = "COc1cccc(NC(=O)NC2CCN(c3ccnc(Nc4cc(OC)c(OC)c(OC)c4)n3)C2)c1 (centres unmarked)"
measured = "13%"

[[record]]
compound = "C[C@@H](Oc1cc(-n2cnc3cc(-c4ccnc(NCCS(C)(=O)=O)c4)ccc32)sc1C(N)=O)c1ccccc1Cl"
measured = "0%"

[[record]]
compound = "COc1ccc(-c2coc3ccc(-c4nnc(SCc5ccc(OC)c(C(F)(F)F)c5)o4)cc23)cc1"
measured = "0%"

[[record]]
compound = "Clc1ccc(-c2nn3ncccc3c2-c2ccnc(Nc3ccc4c(c3)OCCO4)n2)cc1"
measured = "0%"

[[record]]
compound = "Cl.c1ccc(-c2ccc3c(Nc4ccc5[nH]ncc5c4)ccnc3c2)nc1"
measured = "3%"

[[record]]
compound = "Cc1ccc(C)c(NC(=O)NC2CCN(c3ccnc(Nc4ccc(F)cc4)n3)C2)c1 (centres unmarked)"
measured = "0%"

[[record]]
compound = "Cl.Cl.NCC(NCc1ccc(-c2ccnc3[nH]ccc23)s1)c1ccccc1 (centres unmarked)"
measured = "95%"

[[record]]
compound = "Cn1cc(-c2ccc3c(c2)CCN3C(=O)Cc2cccc(F)c2)c2c(N)ncnc21"
measured = "13%"

[[record]]
compound = "O=C(O)C(F)(F)F.O=C(O)C(F)(F)F.O=c1[nH]ccc2nc(N[C@@H]3CCCNC3)nc(Nc3ccc(S(=O)(=O)N4CCOCC4)cc3)c12"
measured = "96.9%"

[[record]]
compound = "CN(c1ccc(NC(=O)Nc2cc(C(F)(F)F)ccc2F)cc1)c1ccnc(Nc2ccc(S(N)(=O)=O)cc2)n1"
measured = "0%"

[[record]]
compound = "CCn1c(-c2nonc2N)nc2c(C#CC(C)(C)O)ncc(OCCCCN)c21.O=C(O)C(F)(F)F.O=C(O)C(F)(F)F"
measured = "89%"

[[record]]
compound = "COc1cc2c(cc1OCCN1CCNCC1)ncc1c3ccc(C#N)cc3[nH]c21"
measured = "42%"

[[record]]
compound = "O=c1[nH]cc(-c2ccc(N3CCOCC3)cc2)c2sc(-c3cn[nH]c3)cc12"
measured = "62%"

[[record]]
compound = "O=C(NC1CCN(c2ccnc(Nc3ccc(F)cc3)n2)C1)c1cc2ccccc2s1 (centres unmarked)"
measured = "0%"

[[record]]
compound = "Cc1ccc(C(=O)Nc2ccc(Nc3ccnc4cc(-c5nccs5)ccc34)cc2O)cc1.Cl"
measured = "0%"

[[record]]
compound = "CC(=O)Nc1nc2cnc(Nc3cc(NC(=O)c4cccc(C5(C#N)CC5)c4Cl)ccc3C)nc2s1"
measured = "0%"

[[record]]
compound = "CCCCc1nn2ncccc2c1-c1ccnc(Nc2ccc(N3CCN(C)CC3)cc2)n1"
measured = "0%"

[[record]]
compound = "Nc1n[nH]c2cnc(-c3ccccc3)cc12"
measured = "2%"

[[record]]
compound = "COc1ccc(CNC(=O)NC2CCN(c3ccnc(Nc4ccc(F)cc4)n3)CC2)cc1"
measured = "8%"

[[record]]
compound = "Nc1ncc(-c2cccnc2)c2scc(-c3ccc4c(c3)CCN4C(=O)Cc3ccccc3)c12"
measured = "19%"

